target.or.system: the molecule itself
test.protocol: circular dichroism, concentration dependence of MRE222 in PBS fitted for dimerization (coiled-coil self-association)
metric.name: Kd (µM)
Answer in µM, number only, no unit symbol.

Param item = CGGRMKQLEDKVKKLLKKNYHLENEVARLKKLVG (The entry is the single chain; the Kd is for its self-association into a coiled-coil dimer; also called PF4ZIP peptide) [PF4ZIP] ; retrieve measured Kd.
3.48
